Taken from PubChem BioAssay (NCI).

# Test system: HS 578T breast
# Method Description: NCI-60 one-dose screen, 48 h (100 = growth as untreated, 0 = no growth, -100 = all killed)
# Condition Parameters: 10 µM unless noted
About 83,000 compounds went through this panel and 20% of them were active in at least one assay; those are over-represented in the sample as a whole.
Rule: Y for growth not less than 90%, N for anything less.

Molecule: N#Cc1cccc(NC(=O)c2cc(-c3ccc(F)cc3F)ccc2O)c1
Discrete Label: N

Molecule: O=S(=O)(NCCNc1nccc(-n2cnc3ccccc32)n1)c1ccc(Br)cc1
Discrete Label: N

Molecule: C[C@@H](Nc1ncnc2ccc(-c3cnc(Cl)c(NS(C)(=O)=O)c3)cc12)c1ccccc1
Discrete Label: N

Molecule: CS(=O)(=O)c1ccc(-n2cc(/C=N/O)c(-c3ccccc3)n2)cc1
Discrete Label: Y

Molecule: Cn1cc(-c2nc(N)nnc2-c2c[nH]c3ccccc23)c2cc(Br)ccc21
Discrete Label: N

Does the molecule C[C@H]1c2[nH]c3ccccc3c2C[C@H]2C(=O)N(CCCCCCC(=O)NO)CC(=O)N21 have recorded growth that is 90% or more? N

Does the molecule COc1c(N2CC3CCCNC3C2)c(F)cc2c(=O)c(C(=O)N/N=C/c3ccccc3)cn(C3CC3)c12 (stereo not given) have recorded growth that is 90% or more? Y

Does the molecule N#Cc1c(Nc2ccccc2)nn2c(-c3ccc([N+](=O)[O-])cc3)ccnc12 have recorded growth that is 90% or more? Y

Does the molecule COc1ccc(N2CCN(C3=C(Cl)C(=O)C(C)=C(C)C3=O)CC2)cc1 have recorded growth that is 90% or more? Y

Does the molecule Cc1cc(C(NC(=O)CCCCCNc2cccc3c2C(=O)N(C2CCC(=O)NC2=O)C3=O)c2ccc3c(c2)OC(F)(F)O3)c(O)c2ncccc12 (stereo not given) have recorded growth that is 90% or more? N
